System: CCRIS mutagenicity, Ames/micronucleus/aberration tests
Test: CCRIS mutagenicity studies
Conditions: Test System: AMES SALMONELLA TYPHIMURIUM; Strain/Indicator: TA100; Metabolic Activation: RAT, LIVER, S-9, PHENOBARBITAL; Method: PREINCUBATION
Text: The CCRIS database contains chemical records with carcinogenicity, mutagenicity, tumor promotion, and tumor inhibition test results. It was developed by the National Cancer Institute (NCI). Data are derived from studies cited in primary journals, current awareness tools, NCI reports, and other sources. Test results have been reviewed by experts in carcinogenesis and mutagenesis. CCRIS provides historical information from the years 1985 - 2011. It is no longer updated. […]
Active and inactive are the calls of the source. How the calls were made is not given here.
readoutLabel: mutagenic call

Example entries and their recorded answers appear below.
C[C@H]1CCCC(=O)CCC/C=C/c2cc(O)cc(O)c2C(=O)O1 = inactive; negative
O=S(=O)(O)c1ccc2c(N=Nc3ccccc3)c(O)ccc2c1 = inactive; negative
O=S(=O)(O)c1ccc2cc(O)ccc2c1 = inactive; negative
c1ccccc1 = inactive; negative

Here's the next entry for you.
q: What measured mutagenic call goes with CC(O)CN(C)N=O (stereo not drawn) ?
a: active; positive

====

System: CCRIS mutagenicity, Ames/micronucleus/aberration tests
Assay: CCRIS mutagenicity studies
Conditions: Test System: AMES SALMONELLA TYPHIMURIUM; Strain/Indicator: TA1535; Metabolic Activation: NONE; Method: STANDARD PLATE
Active and inactive are the calls of the source. The rule behind the calls is not given here.
Hi! Could you answer with just one of these? 1.0 (active), 0.0 (inactive)

Solved entries:
OCC1CO1 (centres undefined) = 1.0
CC12CCC(=O)NC1=CCC1C2CCC2(C)C(OC(=O)CCCc3ccc(N(CCCl)CCCl)cc3)CCC12 (centres undefined) = 1.0
COc1ccc(CC2CO2)cc1OC (centres undefined) = 1.0

q: GET /call?item= `CCOC(=O)NNc1nncc2ccccc12` returns the recorded outcome of this test.
a: 0.0

q: GET /call?item= `C[C@]12C=CC(=O)C=C1CC[C@@H]1[C@@H]2C(=O)C[C@@]2(C)[C@H]1CC[C@]2(O)C(=O)CO` returns the recorded outcome of this test.
a: 0.0

q: GET /call?item= `CCn1cc(C(=O)O)c(=O)c2cc(F)c(-c3ccncc3)c(F)c21` returns the recorded outcome of this test.
a: 0.0

q: GET /call?item= C=CC1CO1 (centres undefined) returns the recorded outcome of this test.
a: 1.0

q: GET /call?item= `N[C@@H]1C[C@H]1c1ccccc1` returns the recorded outcome of this test.
a: 0.0

q: GET /call?item= `CC(C)[C@@H]1CC[C@@H](C)C[C@H]1O` returns the recorded outcome of this test.
a: 0.0

q: GET /call?item= `O=C(OCc1ccc(Cl)cc1)c1cccc2cccnc12` returns the recorded outcome of this test.
a: 0.0

q: GET /call?item= `O=C(CCl)Nc1snc2ccc(Cl)cc12` returns the recorded outcome of this test.
a: 0.0

q: GET /call?item= `Nc1ccc(Cl)c(C(F)(F)F)c1` returns the recorded outcome of this test.
a: 0.0

q: GET /call?item= `O=c1cc(-c2ccc(O)cc2)oc2cc(O)cc(O)c12` returns the recorded outcome of this test.
a: 0.0

q: GET /call?item= `CCCCC/C=C\C/C=C\CCCCCCCC(=O)O` returns the recorded outcome of this test.
a: 0.0
